Where do the numbers come from? From PubChem BioAssay AID2751.

# ASSAY_TARGET: Prolyl endopeptidase-like (Homo sapiens)
# ASSAY_NAME: PREPL enzyme inhibitors, primary screen, biochemical, fluorescence polarization (AID 2751);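 also: 0% = enzyme with DMSO and 100% = wells lacking enzyme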
# REPORTED_CONDITIONS: recombinant PREPL, fluorescence polarization activity-based probe; at 5.96 µM
The campaign covered roughly 320,000 compounds. About 2,200 (0.69%) were called active. Rule as the data show it: active = inhibition above about 43%; inactive = the rest. For the sample, actives were picked, then their nearest neighbours and some compounds at random.
Respond only with the outcome that fits, drawn from true (1) (active), false (0) (inactive)

> print(dat)
                                   molecule        cat
1  O=C(OCC(=O)N1CCc2ccccc21)c1ccc([N+](=O)[O-])cc1  false (0)
2  CC(=O)Nc1ccc(S(=O)(=O)Nc2ccc(N3CCOCC3)c(F)c2)cc1  false (0)
3  COC(=O)[C@]1(CC(C)C)N[C@H](c2ccc(SC3CCCCC3)cc2)[C@@H]2C(=O)N(C)C(=O)[C@@H]21  false (0)
4  O=C(CN1C(=O)NC2(CCCCC2)C1=O)NCCc1c[nH]c2ccccc12  false (0)
5  COc1ccc(NC(C)=O)cc1NC(=O)CN1CCN(C2c3ccccc3-c3ccccc32)CC1   true (1)
6  COc1ccc(/C=C(\NC(=O)c2ccc(OCC(C)C)cc2)C(=O)OCc2ccco2)cc1  false (0)
7  OC(COc1ccc(F)cc1Cl)CN1CCc2ccccc2C1 (centres undefined)  false (0)
8  CCN(CC)CCn1c2c(c(SCC(=O)Nc3ccc(C(C)C)cc3)nc1=O)CCC2  false (0)

Here is the next item to consider.
What call does the record list for Cc1nn(CC(=O)Nc2ccc3c(c2)nc(CN2CCCCC2)n3C)c(=O)c2ccccc12 ?
false (0)
